Each record here notes measured Maximum mean fluorescence intensity.
Molecular target: T1, monkey CD19 on HEK293T-monkey CD19 cells (monkey)
T1 construct: whole, on cells
Test: FACS on HEK293T-monkey CD19 cells
Protocol: After the digestion was terminated, the cells were washed 2 times with a PBS buffer; and for suspension cell Raji, the supernatant of the medium was discarded by directly centrifugation, and the cell pellet was washed 2 times with PBS. […] Data analysis was performed by software (FlowJo) to obtain the mean fluorescence intensity (MFI) of the cells. […]
REPORTED METRIC: Maximum mean fluorescence intensity

{"BINDER": "F3.126.15 (antibody, human IgG1, V domains shown, human-murine chimeric antibody, human IgG1) VH: QVQLQQPGAELVMPGASVKLSCKASGYTFTSYWMHWVKQRPGQGLEWIGEIDPSDSYTTYNQNFKGKATLTVDISTSTAYIQLSNLTSEDSAVYYCARLTGNYIHYWGQGTTLTVSS VL: DIVMTQSHKFMSTSVGDRVSITCKASQDVSPAVAWYQQRPGQCPKLLIFSSSYRSTGVPDRFTGSGSGTDFTFTISSVQAEDLAVYYCQQHYSLPLTFGAGTKLELK", "REPORTED METRIC": "Maximum mean fluorescence intensity", "OBSERVED MEASUREMENT": 175000}
{"BINDER": "F3.23.10 (antibody, human IgG1, V domains shown, human-murine chimeric antibody, human IgG1) VH: EFQLQQSGPELVKPGASVKISCKASDYSFTDYNMNWVKQSNGASLEWIGIINPNFGSTSYNQKFKGKATLTVDQSSSTAFMQLNSLTSEDSAVYYCARSEYYGSSGFAYWGQGTLVTVSA VL: DVVVTQTPLSLPVSFGDQVSISCRSSQSLVNSYGNTYLSWYLHKPGQSPQLLIYGISNRFSGVPDRFSGSGSGTDFTLKITTIKPEDLGMYYCLQGTHQPWTFGGGTKLEIK", "REPORTED METRIC": "Maximum mean fluorescence intensity", "OBSERVED MEASUREMENT": 77}
{"BINDER": "F3.13.2 (antibody, human IgG1, V domains shown, human-murine chimeric antibody, human IgG1) VH: DVQLQESGPGLMKPSQSLSLTCSVTGYSITSGYYWNWIRQFPGNKLEWMGYISYDGSNNYNPSLKNRFSITRDTSKNQFFLKLNSVTTEDTATYYCARRKLTGGPYFDYWGQGTTLTVSS VL: DIVLTQSPASLAVTLGQRATISCRASESVSFHGFHIMHWYQQKPGQPPKLLIYAASHLVSGVPDRFSGSGSETDFTLNIHPVEEEDAAAYFCQQSVEDPWTFGGGTKLEIK", "REPORTED METRIC": "Maximum mean fluorescence intensity", "OBSERVED MEASUREMENT": 66400}

Data origin, for the record: patent US20250042994A1
